Test system: RAW264.7
Experiment summary: Modulation of M2 polarization in mouse RAW264.7 cells assessed as change in Arg1 mRNA expression at 300 nM measured after 24 hrs by qRT-PCR analysis relative to control
Assay type: functional
Provide the recorded fold change (FC) for the entries that follow.
Respond with the number and no other words.

(Q) Give the measured fold change (FC) of Cl.O=C(N[C@@H]1CNCC[C@H]1c1cccc(F)c1)c1ccccc1F .
(A) 1.01

(Q) Now this one: Cl.Cn1ncc(Cl)c1-c1ccc(C(=O)N[C@@H]2CNCC[C@H]2c2ccc(Cl)c(C(F)(F)F)c2)cc1
(A) 2.82

(Q) Okay, and O=C(NCCN1CCC(c2ccccc2)C1)c1ccc(-c2cc[nH]n2)cc1 (stereo not given) ?
(A) 2.22

(Q) Query CCN(CC)C(=O)c1ccc(-c2ccnn2C)cc1F next
(A) 1.96

(Q) Same lookup for Cc1ccc(C(=O)N[C@@H]2CNCC[C@H]2c2cccc(F)c2)o1.Cl , please.
(A) 1.76

====

Experiment summary: AUC (0 to infinity) in Sprague-Dawley rat at 50 mg/kg, po administered as single dose via gavage by LC/MS analysis
Format: ADME, organism-based
Design: dose 50 mg/kg, time infinity, route oral
Details: in vivo
Quantity name: AUC(0-inf) (ng·h/mL)
Numbers only here, please. The scale is ng·h/mL.

(Q) What value of AUC(0-inf) has been reported for the following molecule? Cl.Cn1ncc(Cl)c1-c1ccc(C(=O)N[C@@H]2CNCC[C@H]2c2cccc(F)c2)cc1
(A) 4740

====

Tested on: RAW264.7
Experiment summary: Modulation of M2 polarization in mouse RAW264.7 cells assessed as change in Arg1 mRNA expression at 300 nM measured after 24 hrs by qRT-PCR analysis relative to control
Type: functional
Task for the reader: assign each of the following molecules its reported fold change (FC).
The answer should be written as a number, with no unit following it.

(Q) Entry O=C(NCCN1CCC(c2ccccc2)CC1)c1ccc(-c2cc[nH]n2)cc1 has what fold change (FC)?
(A) 3.92

(Q) Now try COc1ccc(NC(=O)c2ccc(-c3ccnn3C)cc2F)cc1 .
(A) 3.86

(Q) Cl.Cn1ncc(Br)c1-c1ccc(C(=O)N[C@@H]2CNCC[C@H]2c2cccc(F)c2)nc1 , same question.
(A) 0.78

(Q) Follow-up entry: Cc1cc(-c2ccnn2C)cnc1C(=O)N[C@@H]1CNCC[C@H]1c1cccc(F)c1.Cl
(A) 0.95

(Q) Record: Cc1ccc(C(=O)N[C@@H]2CNCC[C@H]2c2cccc(F)c2)s1.Cl
(A) 1.44

====

Experiment summary: Cmax in Sprague-Dawley rat at 50 mg/kg, po administered as single dose via gavage by LC/MS analysis
Type: ADME, organism-based
Design: dose 50 mg/kg, route oral
Details: in vivo
Quantity name: Cmax (ng/mL)
Answer in ng/mL, number only, no unit symbol.

(Q) Consider the molecule shown here: Cl.Cn1ncc(Cl)c1-c1ccc(C(=O)N[C@@H]2CNCC[C@H]2c2cccc(F)c2)cc1 What is its recorded Cmax?
(A) 313

====

Experiment summary: Tmax in Sprague-Dawley rat at 10 mg/kg, iv administered as single dose by LC/MS analysis
Format: ADME, organism-based
Details: in vivo
Quantity name: Tmax (min)
Write it as a number; the unit min goes unstated.

(Q) # Tmax lookup, item Cl.Cn1ncc(Cl)c1-c1ccc(C(=O)N[C@@H]2CNCC[C@H]2c2cccc(F)c2)cc1
(A) 4.98
